# Test system: Trichophyton rubrum
# method.description: Antimicrobial activity against Trichophyton rubrum after 48 hrs by broth microdilution technique
# Type: functional
measured.parameter: MIC (µg/mL)

[[record]]
compound = "COC(=O)c1cc(O)c(O)c(O)c1"
units_of_measure = "µg/mL"
reading = 100

[[record]]
compound = "CCCCCOC(=O)c1cc(O)c(O)c(O)c1 [PENTYL GALLATE]"
units_of_measure = "µg/mL"
reading = 50

[[record]]
compound = "CCCCCCCOC(=O)c1cc(O)c(O)c(O)c1 [HEPTYL GALLATE]"
units_of_measure = "µg/mL"
reading = 6.25

[[record]]
compound = "O=C(O)c1cc(O)c(O)c(O)c1"
units_of_measure = "µg/mL"
reading = 100


P. CCCCCCCCCCCCCCOC(=O)c1cc(O)c(O)c(O)c1 [TETRADECYL GALLATE]
Q. CCCCCCCCCOC(=O)c1cc(O)c(O)c(O)c1 [NONYL GALLATE]
R. Oc1cccc(O)c1O
S. CCCCCCCCCCCCCCCCOC(=O)c1cc(O)c(O)c(O)c1 [HEXADECYL GALLATE]
T. CCOC(=O)c1cc(O)c(O)c(O)c1 [ETHYLGALLATE]
Form: Sort by [MIC] Order [ ascending ] Please list each label once, in the requested order.
Q, R, P, T, S
(Q: 8 µg/mL, R: 25 µg/mL, P: 50 µg/mL, T: 100 µg/mL, S: 250 µg/mL)

---

# Tested on: Epidermophyton floccosum
# method.description: Antimicrobial activity against Epidermophyton floccosum after 48 hrs by broth microdilution technique
# Format: functional
measured.parameter: MIC (µg/mL)

[[record]]
molecule = "CCOC(=O)c1cc(O)c(O)c(O)c1 [ETHYLGALLATE]"
experimental_target = "Epidermophyton floccosum"
measured_parameter = "MIC"
reading = 100

[[record]]
molecule = "CCCCCCCCOC(=O)c1cc(O)c(O)c(O)c1 [OCTYL_GALLATE]"
experimental_target = "Epidermophyton floccosum"
measured_parameter = "MIC"
reading = 6.25

[[record]]
molecule = "CCCCCOC(=O)c1cc(O)c(O)c(O)c1 [PENTYL GALLATE]"
experimental_target = "Epidermophyton floccosum"
measured_parameter = "MIC"
reading = 100


A. CCCOC(=O)c1cc(O)c(O)c(O)c1 [PROPYL GALLATE]
B. CCCCCCCCCCOC(=O)c1cc(O)c(O)c(O)c1 [DECYL GALLATE]
C. CCCCCCCOC(=O)c1cc(O)c(O)c(O)c1 [HEPTYL GALLATE]
D. CN(C/C=C/C#CC(C)(C)C)Cc1cccc2ccccc12
Place the items in sequence of falling MIC. Please list each label once, in the requested order.
A, B, C, D

---

# System: Trichophyton rubrum
# method.description: Antimicrobial activity against Trichophyton rubrum after 48 hrs by broth microdilution technique
# Type: functional
measured.parameter: MIC (µg/mL)

[[record]]
compound = "CCCOC(=O)c1cc(O)c(O)c(O)c1 [PROPYL GALLATE]"
experimental_target = "Trichophyton rubrum"
measured_parameter = "MIC"
reading = 50

[[record]]
compound = "CCCCCCCCCCCCOC(=O)c1cc(O)c(O)c(O)c1 [DODECYL GALLATE]"
experimental_target = "Trichophyton rubrum"
measured_parameter = "MIC"
reading = 50

[[record]]
compound = "CCCCOC(=O)c1cc(O)c(O)c(O)c1 [BUTYL GALLATE]"
experimental_target = "Trichophyton rubrum"
measured_parameter = "MIC"
reading = 50

